- target-or-system: recombinant human ghrelin receptor (HEK293/GRLN) (Homo sapiens, UniProt Q92847)
- Construct: expressed in transfected cells
- Sequence (Q92847 whole entry): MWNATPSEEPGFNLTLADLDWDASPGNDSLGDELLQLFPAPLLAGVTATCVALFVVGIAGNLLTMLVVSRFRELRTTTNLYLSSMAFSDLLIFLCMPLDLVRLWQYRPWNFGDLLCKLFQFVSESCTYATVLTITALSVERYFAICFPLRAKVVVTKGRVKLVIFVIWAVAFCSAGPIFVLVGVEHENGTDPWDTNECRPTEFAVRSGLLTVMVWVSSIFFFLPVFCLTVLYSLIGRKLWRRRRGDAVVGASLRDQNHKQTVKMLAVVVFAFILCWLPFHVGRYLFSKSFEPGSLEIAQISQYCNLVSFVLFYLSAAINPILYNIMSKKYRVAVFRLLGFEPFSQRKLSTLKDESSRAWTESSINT
- protocol-text: Ghrelin inverse agonist potency (EC50) with IP-1 (IP-One HTRF) assay
- Format: cell-based
- particulars: ghrelin inverse agonist potency, IP-1 assay; read-out: Activity EC50
- Procedure: Evaluation of Ghrelin Inverse Agonist Potency (EC50) with IP-1 Assay: HEK293 cells stably expressing recombinant human ghrelin receptor (HEK293/GRLN) were used in the IP-One HTRF assay. […] After additional incubation at room temperature for 1 hour, the plates were read on Envision with 620 and 665 (Perkin Elmer).
Give pEC50 for every item shown.
API: returns pEC50 as number; meaning -log10 of concentration in mol/L.

input: # query: pEC50 of entry CC(NC(=O)Nc1ccc(S(=O)(=O)Cc2ccc3c(c2)CNC3)c(F)c1)c1ccccc1.Cl (centres unmarked) [H1492]
output: 8.29

input: Subsequent entry: COc1cc(NC(=O)N(O)C(C)c2ccccc2)ccc1S(=O)(=O)Cc1ccc2c(c1)CN(C)C2 (centres unmarked) [H1516]
output: 7.95

input: Subsequent entry: C[C@@H](NC(=O)Nc1ccc(S(=O)(=O)Cc2ccc3c(c2)C(F)CN(C)C3)cc1)c1ccccc1 (some centres unmarked) [H1539]
output: 6.58

input: Subsequent entry: CC(c1ccccc1F)N(O)C(=O)Nc1ccc(S(=O)(=O)Cc2ccc3c(c2)CN(C)C3)cc1 (centres unmarked) [H1491]
output: 8.34

input: Subsequent entry: CC(NC(=O)Nc1ccc(S(=O)(=O)Cc2ccc3c(c2)C(F)(F)CN(C)C3)cc1)c1cccc(Cl)c1Cl (centres unmarked) [H1548]
output: 6.88

input: Subsequent entry: O=C(NCC1COc2ccccc2O1)Nc1ccc(S(=O)(=O)Cc2ccc3c(c2)CNC3)cc1 (centres unmarked) [H1483]
output: 7.62

input: Subsequent entry: COc1cc(S(=O)(=O)Cc2nc3c(s2)CN(C)C3)ccc1NC(=O)N[C@@H](C)c1ccccc1 [H1464]
output: 6.54

input: Subsequent entry: CC(NC(=O)Nc1ccc(S(=O)(=O)Cc2ccc3c(c2)CNC3)c(CO)c1)c1ccccc1 (centres unmarked) [H1520]
output: 7.90

====

- target-or-system: GHSR-1a (HEK293/GHSR1a cell line) (Homo sapiens)
- Construct: expressed in transfected cells; host or cells: HEK293/GHSR1a cell line
- Sequence (Q92847 whole entry): as above
- protocol-text: Ghrelin antagonist potency (IC50) with calcium FLIPR assay, ghrelin 10 nM
- Format: cell-based
- particulars: HEK293/GHSR1a, ghrelin 10 nM, read-out: Activity IC50 (ghrelin antagonist potency)
Give pIC50 for every item shown.
API: returns pIC50 as number; meaning -log10 of concentration in mol/L.

input: // fetch GHSR-1a (HEK293/GHSR1a cell line) (Homo sapiens) pIC50 for C[C@H](NC(=O)Nc1ccc(S(=O)(=O)Cc2ccc3c(c2)C2CCC3N2)cc1)c1ccccc1 (stereo partly shown) [H1324]
output: 4.98

input: Subsequent entry: COc1cc(S(=O)(=O)Cc2ccc3c(c2)CNC3)ccc1NC(=O)N(C)C(C)c1ccccc1 (stereo not shown) [H1398]
output: 6.20

input: Subsequent entry: CC(NC(=O)Nc1ccc(S(=O)(=O)Cc2ccc3c(c2)CNC3)cc1)c1ccc2c(c1)OCO2 (stereo not shown) [H1452]
output: 7.06

input: Subsequent entry: O=C(NCc1cccnc1)Nc1ccc(S(=O)(=O)Cc2ccc3c(c2)CNC3)cc1 [H1301]
output: 5.35
